system: IGROV1 ovarian; assay: NCI tumour cell line growth inhibition, 48 h; in the data active = GI50 below about 0.43 µM; inactive = the rest
Labels: active, inactive

| compound | class |
| --- | --- |
| COc1ccc(C2C3=C(COC3=O)N(CCO)c3cc4c(cc32)OCCO4)cc1OC (centres undefined) | inactive |
| Cc1cc2nc3c4ccccc4n(CCN(C)C)c3nc2cc1C | inactive |
| COC(=O)Nc1nc2ccc(Sc3ccccc3)cc2[nH]1 | inactive |
| CCOc1cc(/C=N\NC(=O)N/N=C/c2ccc(O)c(OCC)c2)ccc1O | inactive |
| CC1(C)CC2CC(C)(CN2c2ncnc3ccc(Br)cc23)C1 (centres undefined) | inactive |
| Oc1[nH]c2ccc(Cl)cc2c1/C=c1/ccc2c(c1)N=C(c1cc(F)cc(F)c1)N=2 | inactive |
| C[C@@H]1CN2[C@H]3[C@@H]1CC[C@]31CCC(=O)O[C@]1(C)[C@@H]1CC[C@H]3CCC=C3[C@@H]12 | inactive |
| CCOC(=O)C(Cc1ccc(OC)cc1)C(=O)OCC | inactive |
| CC[C@H](C)[C@H](NC(=O)C12CC(NC(C)=O)(C1)C2)C(=O)N(C)[C@H](C[C@@H](OC(C)=O)c1nc(C(=O)N[C@@H](Cc2ccccc2)C[C@H](C)C(=O)OC)cs1)C(C)C | inactive |
| C[C@@H](Oc1cc(-c2cnn(C3CC4(CCCNC4)C3)c2)cnc1N)c1c(Cl)ccc(F)c1Cl (some centres undefined) | inactive |
| Brc1ccc(Br)nn1 | inactive |
| O=C(NO)c1cnc(N2CCN(S(=O)(=O)c3ccc4ccccc4c3)CC2)nc1 | active |
| N#CC(C#N)=Cc1ccc(-c2ccc(-c3nc4ccccc4o3)cc2)o1 | inactive |
| CCNCCNc1cc(-c2cccc(C(F)(F)F)c2)c(C#N)c2nc3ccccc3n12 | inactive |
